biological target: TLR8 (Homo sapiens, UniProt Q9NR97); assay: HEK-TLR8 NF-κB-luciferase reporter, R848 or Motolimod stimulation (potentiation or inhibition); assay type: cell-based; set-up: expressed in transfected cells; host or cells: 293XLhTLR8 (HEK293); conditions: MOE-modified ASO at 100 nM; averaged NF-κB-Luciferase relative to R848 condition (fold increase)
Sequence (Q9NR97 27-1041): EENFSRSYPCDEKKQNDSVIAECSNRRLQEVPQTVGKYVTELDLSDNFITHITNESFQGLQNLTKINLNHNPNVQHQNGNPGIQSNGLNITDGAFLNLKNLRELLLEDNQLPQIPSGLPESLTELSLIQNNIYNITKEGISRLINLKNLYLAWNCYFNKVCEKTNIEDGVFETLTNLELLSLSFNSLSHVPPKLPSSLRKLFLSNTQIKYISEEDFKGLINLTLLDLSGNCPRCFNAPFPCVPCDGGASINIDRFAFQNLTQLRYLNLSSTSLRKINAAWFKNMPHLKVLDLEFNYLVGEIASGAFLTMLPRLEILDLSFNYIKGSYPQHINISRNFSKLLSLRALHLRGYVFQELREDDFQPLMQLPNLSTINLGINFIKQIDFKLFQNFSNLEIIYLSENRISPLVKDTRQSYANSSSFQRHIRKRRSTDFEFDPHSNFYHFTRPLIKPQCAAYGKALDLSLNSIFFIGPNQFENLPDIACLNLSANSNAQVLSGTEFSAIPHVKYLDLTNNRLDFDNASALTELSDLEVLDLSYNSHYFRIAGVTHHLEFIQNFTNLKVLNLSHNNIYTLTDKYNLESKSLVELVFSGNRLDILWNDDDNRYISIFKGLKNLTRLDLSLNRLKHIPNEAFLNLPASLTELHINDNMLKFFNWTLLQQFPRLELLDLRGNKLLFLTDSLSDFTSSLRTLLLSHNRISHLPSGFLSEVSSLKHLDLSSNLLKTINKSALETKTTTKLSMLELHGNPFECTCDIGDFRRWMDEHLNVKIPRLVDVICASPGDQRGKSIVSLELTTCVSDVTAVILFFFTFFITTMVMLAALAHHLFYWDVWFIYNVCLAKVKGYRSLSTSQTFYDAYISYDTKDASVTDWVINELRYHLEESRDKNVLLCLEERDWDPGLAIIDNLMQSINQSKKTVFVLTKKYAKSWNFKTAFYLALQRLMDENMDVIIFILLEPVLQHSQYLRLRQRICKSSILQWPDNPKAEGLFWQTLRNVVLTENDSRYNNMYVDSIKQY
Decision: TLR8 100 nM >= 2 yields t, all other cases yield f.

Check the entry CAATGTGATGGCCTCCCATC (antisense; 2'-MOE modified, pattern not given here) [HPRT-335 MOE] : does TLR8 100 nM equal or exceed 2? f

Check the entry TGTCCTTGCACGTGGCTTCG (antisense; 2'-MOE modified, pattern not given here) [EGFR-1014 MOE] : does TLR8 100 nM equal or exceed 2? f

Check the entry GAACCACGTCTGCTCTAACA (antisense; 2'-MOE modified, pattern not given here) [CAMSAP1-1635 MOE] : does TLR8 100 nM equal or exceed 2? t

Next:
Check the entry GCCGCTTTTCTGTCTGGTTC (antisense; 2'-MOE modified, pattern not given here) [CTNN2B-311 MOE] : does TLR8 100 nM equal or exceed 2? f

Check the entry TCAAAGGACTGAGGAAAGGG (antisense; 2'-MOE modified, pattern not given here) [CAMSAP1-6273 MOE] : does TLR8 100 nM equal or exceed 2? t

Check the entry GAGGTCTTGGCTTCGTGGAG (antisense; 2'-MOE modified, pattern not given here) [MB21D1-523 MOE] : does TLR8 100 nM equal or exceed 2? f

Check the entry GGTGGTCCACAACCCCTTTC (antisense; 2'-MOE modified, pattern not given here) [MB21D1-697 MOE] : does TLR8 100 nM equal or exceed 2? t

###

target: cGAS (Homo sapiens, UniProt Q8N884); assay: ISD70-driven IP-10 (and IFN-β) production in THP-1 cells, ELISA; type: cell-based; design: endogenous in cells; host or cells: THP-1 (undifferentiated); details: THP-1; 100 nM ASO overnight, then ISD70 2.5 μg/ml 7-8 h; percentage of ISD70 only
Sequence (Q8N884 whole entry): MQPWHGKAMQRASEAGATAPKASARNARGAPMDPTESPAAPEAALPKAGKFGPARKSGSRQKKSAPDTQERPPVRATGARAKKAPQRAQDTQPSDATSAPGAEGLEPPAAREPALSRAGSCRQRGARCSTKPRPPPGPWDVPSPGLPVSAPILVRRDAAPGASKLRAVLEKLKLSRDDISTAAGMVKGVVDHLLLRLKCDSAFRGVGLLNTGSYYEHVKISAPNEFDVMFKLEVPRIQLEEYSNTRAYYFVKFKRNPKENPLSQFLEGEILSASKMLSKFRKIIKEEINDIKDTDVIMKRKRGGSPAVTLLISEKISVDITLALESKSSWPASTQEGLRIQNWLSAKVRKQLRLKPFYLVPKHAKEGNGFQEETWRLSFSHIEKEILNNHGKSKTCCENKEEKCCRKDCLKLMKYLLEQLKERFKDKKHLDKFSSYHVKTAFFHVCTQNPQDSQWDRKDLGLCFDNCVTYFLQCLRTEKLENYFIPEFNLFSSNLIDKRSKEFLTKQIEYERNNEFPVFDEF
In the oligonucleotide strings, read from the 5' end, every base follows the letter of its sugar. An asterisk marks phosphorothioate; unmarked linkages are phosphodiester. Other units and linkages are bracketed, terminal groups are in braces. A string of capitals states the bases alone. d = 2'-deoxy (DNA); m = 2'-O-methyl
Decision: cGAS-100 nM: averaged IP-10 levels relative to ISD70 >= 70% yields Fulfilled, all other cases yield Not fulfilled.

Check the entry mG*mC*mA*mA*mG*G*C*A*G*A*G*A*A*A*C*mU*mC*mC*mA*mG (GCAAGGCAGAGAAACUCCAG; sugars from the 5' end m5 d10 m5, all phosphorothioate, methylation of C not given here) [[LINC-PINT]1315 KL] : does cGAS-100 nM: averaged IP-10 levels relative to ISD70 equal or exceed 70%? Not fulfilled

Check the entry mG*mG*mU*mG*mG*C*C*A*C*A*G*G*C*A*A*mC*mG*mU*mC*mA (GGUGGCCACAGGCAACGUCA; antisense; sugars from the 5' end m5 d10 m5, all phosphorothioate, methylation of C not given here) [[CDKN2B-AS1]2196] : does cGAS-100 nM: averaged IP-10 levels relative to ISD70 equal or exceed 70%? Not fulfilled

Next:
Check the entry mU*mC*mU*mG*mG*T*C*C*C*A*T*C*C*C*T*mU*mC*mU*mG*mC (UCUGGTCCCATCCCTUCUGC; antisense; sugars from the 5' end m5 d10 m5, all phosphorothioate, methylation of C not given here) [[LINC-PINT]106] : does cGAS-100 nM: averaged IP-10 levels relative to ISD70 equal or exceed 70%? Not fulfilled

Check the entry mA*mG*mU*mG*mG*C*A*C*A*T*A*C*C*A*C*mA*mC*mC*mC*mU (AGUGGCACATACCACACCCU; antisense; sugars from the 5' end m5 d10 m5, all phosphorothioate, methylation of C not given here) [[CDKN2B-AS1]495] : does cGAS-100 nM: averaged IP-10 levels relative to ISD70 equal or exceed 70%? Not fulfilled

Check the entry mC*mA*mA*mG*mC*C*C*C*A*G*C*G*T*T*C*mC*mU*mC*mC*mG (mC*mA*mA*mG*mC*dC*dC*dC*dA*dG*dC*dG*dT*dT*dC*mC*mU*mC*mC*mG; antisense) [[LINC-PINT]83.1] : does cGAS-100 nM: averaged IP-10 levels relative to ISD70 equal or exceed 70%? Fulfilled

Check the entry mU*mU*mA*mG*mC*T*C*C*T*T*G*C*C*T*C*mG*mU*mU*mC*mC (mU*mU*mA*mG*mC*dT*dC*dC*dT*dT*dG*dC*dC*dT*dC*mG*mU*mU*mC*mC; antisense) [[LINC-PINT] 1222] : does cGAS-100 nM: averaged IP-10 levels relative to ISD70 equal or exceed 70%? Not fulfilled

Check the entry mU*mA*mU*mU*mU*C*C*A*C*A*T*G*C*C*C*mA*mG*mU*mG*mU (mU*mA*mU*mU*mU*dC*dC*dA*dC*dA*dT*dG*dC*dC*dC*mA*mG*mU*mG*mU; antisense) [[CDKN2B-AS1]627] : does cGAS-100 nM: averaged IP-10 levels relative to ISD70 equal or exceed 70%? Fulfilled
